Values were extracted from the supplement of paper PMC10567573.

B1: MFF (parent)
chain: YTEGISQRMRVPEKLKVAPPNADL

- Variants of: B1
- EXPERIMENT_DESCRIPTION: protein stability index of a GFP-peptide fusion (GPS, HEK-293T) (PSI 1-6); higher = more stable;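 note: lentivirally expressed fusions sorted by FACS into six bins by GFP to DsRed ratio, PSI derived from sequencing read proportions per bin multiplied by bin number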
- CONDITIONS_USED: c terminus: a fixed tail appended
ENDPOINT_NAME: protein stability index

> print(dat)
    mutation  numeric.readout
 1       R8V              2.6
 2      D23T             2.38
 3       E3A             2.96
 4      L15C             2.44
 5      A22Y             2.56
 6      V11Q             2.62
 7       E3M             2.48
 8       M9E             2.89
 9      E13W             2.16
10       S6H             2.63
11      K16G             3.27
12      K16E             2.93
13       Q7K             2.39
14      P19Y             2.33
15      R10E             2.83
16       S6P             2.29
17      L15I             2.69
18       Q7N             2.74
19       G4S             3.88
20      K14E             3.17
21      P20I             2.75
22       G4E             3.61
23      L24I              2.8
24       R8I             1.57
25      N21F             2.25
26      P12S             2.53
27      V11G              2.9
28      K14P             3.32
29       R8Q             2.79
30      L15Y             3.12
31      R10T              2.6
32       T2I             1.65
33       G4P             3.79
34      K14D             3.13
35       I5K             4.18
36      L15E             3.36
37       R8D             3.76
38      P20R             2.75
39       Q7Y             1.75
40      V11T             3.24
41       E3Q             3.01
42      P12M             2.59
43      R10L             3.06
44       G4I                3
45      V11L             2.59
46       S6V             2.19
